Assay: in vitro
Conditions: rat, gh3-tre-luc cells, AC50 (uM) modified / 1000
Where a name gives a salt, the structure may show the parent alone.
observable: CC50 at 24 h

- compound: "C=C(C)C1CC=C(C)C(OC(C)=O)C1 (stereo not shown) [Carvyl acetate]"
  test.value: "> 90 µM"
- compound: "Cc1ccc(C(C)C)cc1O [Isopropyl-o-cresol]"
  test.value: "> 90 µM"
- compound: "CCO [Ethanol]"
  test.value: "> 100 µM"
- compound: "Cc1cccc(O)c1C [2,3-Dimethylphenol]"
  test.value: "> 90 µM"
- compound: "Cc1cc(C)c(C2=C(OC(=O)CC(C)(C)C)C3(CCCC3)OC2=O)c(C)c1 [Spiromesifen]"
  test.value: "> 100 µM"
- compound: "Nc1ccc(Br)cc1 [4-Bromoaniline]"
  test.value: "> 90 µM"
- compound: "CCCC(=O)OC(C)(C)Cc1ccccc1 [1,1-Dimethyl-2-phenylethyl butanoate]"
  test.value: "> 90 µM"
- compound: "CCN(Cc1cccc(S(=O)(=O)O)c1)c1ccc(C(=C2C=CC(=[N+](CC)Cc3cccc(S(=O)(=O)O)c3)C=C2)c2ccccc2S(=O)(=O)[O-])cc1 [FD&C Blue No. 1]"
  test.value: "50.7 µM"
- compound: "Cc1cc(Cl)ccc1OCC(=O)O [MCPA]"
  test.value: "> 90 µM"
- compound: "Cc1cc(O)ccc1N [4-Amino-m-cresol]"
  test.value: "29.9 µM"
- compound: "O=C(Nc1ccccc1)c1ccccc1O [Salicylanilide]"
  test.value: "> 90 µM"
- compound: "CN1CCN(c2c(F)cc3c(=O)c(C(=O)O)cn(CCF)c3c2F)CC1 [Fleroxacin]"
  test.value: "> 50 µM"
- compound: "CCCC[N+]1(C)CCCC1"
  test.value: "> 90 µM"
- compound: "C=CN1CCCCCC1=O [1-Ethenylazepan-2-one]"
  test.value: "> 90 µM"
- compound: "CCOC(=O)[C@H](CCc1ccccc1)N[C@@H](C)C(=O)N1C(=O)N(C)C[C@H]1C(=O)O [Imidapril hydrochloride]"
  test.value: "> 50 µM"
- compound: "CCCCCC[N+](=O)[O-] [1-Nitrohexane]"
  test.value: "> 90 µM"
- compound: "NCCC(O)(P(=O)(O)O)P(=O)(O)O [Pamidronic acid]"
  test.value: "> 50 µM"
- compound: "CCN(CC)CC [Triethylamine]"
  test.value: "> 100 µM"
- compound: "Oc1ncc(N(CCCl)CCCl)c(O)n1 [Uracil mustard]"
  test.value: "> 50 µM"
- compound: "CC(C)OC(C)C [Isopropyl ether]"
  test.value: "> 100 µM"
- compound: "CCC(C)(C)OC(=O)N[C@@H](Cc1c[nH]c2ccccc12)C(=O)N[C@@H](CCSC)C(=O)N[C@@H](CC(=O)O)C(=O)N[C@@H](Cc1ccccc1)C(N)=O [Amogastrin]"
  test.value: "> 50 µM"
- compound: "CC(C)(C)C(=O)C(Cl)Cl [Dichloropinacolin]"
  test.value: "> 90 µM"
